assay: In vivo pharmacokinetics and brain distribution, single i.v. or p.o. dose; parameters: species or system male C57BL/6 mice; conditions: mice, PO, at 10 mg/kg
value-type: B:P ratio (PO)

Supply B:P ratio (PO) value. Item: CCCC[C@@H](Cc1c[nH]c2ccccc12)NC(=O)c1cnc(N2CCN(C)CC2)s1 [Example 27]
0.3

(I) CCCC[C@H](Cc1c[nH]c2ccccc12)NC(=O)c1cnc(N2CCN(C)CC2)s1 [Example 28]
(II) CCCCC(Cc1c[nH]c2ccccc12)NC(=O)c1cnc(CCN2CCN(C)CC2)s1 (stereo not shown) [Example 5]
(III) CN1CCN(CCc2ncc(C(=O)NCCc3c[nH]c4ccccc34)s2)CC1 [Example 4]
Thanks in advance: please rank these 3 entries by B:P ratio (PO), highest to lowest. Returns: the labels listed in the requested order.
I, III, II

====

experiment: In vivo pharmacokinetics and brain distribution, single i.v. or p.o. dose; parameters: species or system male C57BL/6 mice; details: mice, PO, at 10 mg/kg
value-type: B:P ratio (PO)

Solved entries (count: 2):
Supply B:P ratio (PO) value. Item: CCCCNC(=O)C(Cc1c[nH]c2ccccc12)NC(=O)c1cnc(N2CCNCC2)s1 (stereo not shown) [Comp. A, reference compound]
0.05

Supply B:P ratio (PO) value. Item: CCCCC(Cc1c[nH]c2ccccc12)NC(=O)c1cnc(N2CCN(C)CC2)s1 (stereo not shown)
0.4

(A) CCCNC(=O)NC(Cc1c[nH]c2ccccc12)NC(=O)c1cnc(N2CCN(C)CC2)s1 (stereo not shown) [Comp. B, reference compound]
(B) CCCCC(Cc1c[nH]c2ccc(F)cc12)NC(=O)c1cnc(CCN2CCOCC2)s1 (stereo not shown)
Returns: the label, A or B , whose recorded B:P ratio (PO) is the lower number. Lab note: record the label of whichever item you select.
A
(A: 0.08, B: 0.15)

====

experiment: In vivo pharmacokinetics and brain distribution, single i.v. or p.o. dose; set-up: species or system male C57BL/6 mice; conditions: male, C57BL/6, mouse, plasma, intravenous; mice, at 2 mg/kg; read-out: PK Clearance
value-type: clearance (mL/min/kg)
Form entry: value (mL/min/kg) — number only.

Supply clearance value. Item: CCCCC(Cc1c[nH]c2ccc(F)cc12)NC(=O)c1cnc(CCN2CCOCC2)s1 (stereo not shown)
75

====

assay: In vivo pharmacokinetics and brain distribution, single i.v. or p.o. dose; design: species or system male C57BL/6 mice; details: mice, IV, at 10 mg/kg
value-type: B:P ratio (IV)

Solved entries (count: 4):
Supply B:P ratio (IV) value. Item: CCCCC(Cc1c[nH]c2ccccc12)NC(=O)c1cnc(N2CCN(C)CC2)s1 (stereo not drawn)
2.0

Supply B:P ratio (IV) value. Item: CCCNC(=O)NC(Cc1c[nH]c2ccccc12)NC(=O)c1cnc(N2CCN(C)CC2)s1 (stereo not drawn) [Comp. B, reference compound]
0.1

Supply B:P ratio (IV) value. Item: "CCCC[C@@H](Cc1c[nH]c2ccccc12)NC(=O)c1cnc(N2CCN(C)CC2)s1"
1.4

Supply B:P ratio (IV) value. Item: CCCCC(Cc1c[nH]c2ccccc12)NC(=O)c1cnc(CCN2CCN(C)CC2)s1 (stereo not drawn)
0.18

(A) CCCC[C@H](Cc1c[nH]c2ccccc12)NC(=O)c1cnc(N2CCN(C)CC2)s1
(B) CN1CCN(CCc2ncc(C(=O)NCCc3c[nH]c4ccccc34)s2)CC1
Returns: the label, A or B , whose recorded B:P ratio (IV) is the lower number. Lab note: record the label of whichever item you select.
B

Values from patent US11078196B2
